All figures here come from patent US12208097B2.

# PROCEDURE_TEXT: Phase I trial: pharmacokinetic (PK) studies
# Type: in vivo, human
# COND: human, in vivo, oral; consistent across different doses; read-out: terminal T½ (converted)
RESULT_TYPE: half-life

Req: Look at this compound and give its reported half-life. `CC1(N)CCN(c2cccnc2NC(=O)c2nc(-c3ncccc3C(F)(F)F)cnc2N)CC1`
Resp: ~10 h
